target: Glutamate NMDA receptor; GRIN1/GRIN2B (Homo sapiens, UniProt Q05586+Q13224); experiment: Inhibition of recombinant wild type human GluN1/GluN2B receptor expressed in HEK293 cells assessed as reduction in glutamate induced current at -60 mV holding potential by electrophysiology assay; assay type: cell-based
Examples of compounds with documented IC50 follow.
Entry rule: numbers only, all in µM.

Item COc1ccccc1Oc1ccc2nc3c(c(N)c2c1)CCC3.Cl has what recorded IC50?
2.4

New cases:
Item COc1ccccc1Oc1ccc2nc3c(c(N)c2c1)CCCC3.Cl has what recorded IC50?
3.6

###

Examples of compounds with documented inhibition follow.
biological target: Glutamate NMDA receptor; GRIN1/GRIN2B (Homo sapiens, UniProt Q05586+Q13224); experiment: Inhibition of recombinant human GluN1/GluN2B receptor expressed in HEK293 cells assessed as reduction in glutamate induced current at 1 uM at -60 mV holding potential by electrophysiology assay relative to control; type: cell-based
Entry rule: numbers only, all in %.

# count of solved cases: 5
Item Nc1c2c(nc3ccc(Oc4ccccc4)cc13)CCCCC2 has what recorded inhibition?
34.9

Record: Cc1ccc(Oc2ccc3nc4c(c(N)c3c2)CCCCC4)cc1
11.9

Record: Cc1ccc(Oc2ccc3nc4c(c(N)c3c2)CCCC4)cc1
18

Record: Nc1c2c(nc3ccc(Oc4ccc(Cl)cc4)cc13)CCCCC2
12

Record: Cc1ccccc1Oc1ccc2nc3c(c(N)c2c1)CCC3.Cl
16.6

Could you now consider this next compound?
Item CC(C)(C)c1ccc(Oc2ccc3nc4c(c(N)c3c2)CCCC4)cc1 has what recorded inhibition?
16
